Data origin, for the record: patent US9399145B2

studySystem: α1β2γ2 GABAARs (rat α1, rat β2 and human γ2S) (UniProt P18507+P62813+P63138)
Construct: expressed in transfected cells; host or cells: Xenopus laevis oocytes
Sequence (P62813 28-455): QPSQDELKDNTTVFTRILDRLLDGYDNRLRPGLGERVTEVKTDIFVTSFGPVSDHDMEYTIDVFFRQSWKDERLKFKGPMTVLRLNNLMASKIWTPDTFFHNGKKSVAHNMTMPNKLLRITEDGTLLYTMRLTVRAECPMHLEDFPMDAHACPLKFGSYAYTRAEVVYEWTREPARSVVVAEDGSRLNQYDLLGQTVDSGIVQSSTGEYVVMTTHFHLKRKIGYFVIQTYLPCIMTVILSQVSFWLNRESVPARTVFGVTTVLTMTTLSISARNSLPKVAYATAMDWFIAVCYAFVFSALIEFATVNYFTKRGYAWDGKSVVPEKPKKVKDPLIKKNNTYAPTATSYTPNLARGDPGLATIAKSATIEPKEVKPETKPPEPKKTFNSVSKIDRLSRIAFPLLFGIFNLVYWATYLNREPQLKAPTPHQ
Sequence (P63138 25-474 limits assumed): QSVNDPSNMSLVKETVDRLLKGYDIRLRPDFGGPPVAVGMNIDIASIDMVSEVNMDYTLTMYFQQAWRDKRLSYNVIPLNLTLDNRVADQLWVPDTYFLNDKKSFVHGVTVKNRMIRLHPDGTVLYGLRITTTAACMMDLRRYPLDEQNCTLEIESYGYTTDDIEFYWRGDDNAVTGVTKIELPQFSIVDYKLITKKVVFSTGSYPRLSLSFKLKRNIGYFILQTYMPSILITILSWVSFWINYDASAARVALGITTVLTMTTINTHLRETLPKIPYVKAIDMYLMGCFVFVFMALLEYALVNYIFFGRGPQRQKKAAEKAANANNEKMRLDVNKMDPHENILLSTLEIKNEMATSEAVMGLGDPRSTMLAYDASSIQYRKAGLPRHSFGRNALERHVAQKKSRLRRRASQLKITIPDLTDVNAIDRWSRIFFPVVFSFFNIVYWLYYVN
Sequence (P18507 40-467 isoform P18507-1 limits assumed): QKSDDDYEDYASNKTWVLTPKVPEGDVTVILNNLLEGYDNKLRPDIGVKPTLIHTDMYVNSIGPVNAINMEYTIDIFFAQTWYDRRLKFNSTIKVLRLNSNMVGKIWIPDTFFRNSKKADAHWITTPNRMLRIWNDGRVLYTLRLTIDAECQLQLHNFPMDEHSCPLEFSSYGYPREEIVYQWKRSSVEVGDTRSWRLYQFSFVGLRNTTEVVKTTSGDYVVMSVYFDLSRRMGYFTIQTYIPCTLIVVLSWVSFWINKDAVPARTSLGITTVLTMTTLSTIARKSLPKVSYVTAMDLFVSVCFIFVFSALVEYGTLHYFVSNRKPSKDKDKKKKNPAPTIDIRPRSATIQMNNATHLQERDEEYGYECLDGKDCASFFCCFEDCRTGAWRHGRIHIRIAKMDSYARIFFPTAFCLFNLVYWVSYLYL
measurementProtocol: Two-electrode voltage clamp of α1β2γ2 GABAAR-expressing Xenopus oocytes
Format: cell-based
assayContext: Xenopus oocyte expression system
endpointName: electrophysiological activity of propofol analogs (FIG. 59), words

INSERT INTO results (compoundstructurestring, obsvalue) VALUES
  ('CC(C)c1cc(CCCC(=O)O)cc(C(C)C)c1O', 'poor activity'),
  ('COC(=O)c1ccc(/N=N/c2ccc(CNC(=O)CCCc3cc(C(C)C)c(O)c(C(C)C)c3)cc2)cc1', 'poor activity');
